Entries and their IC50 values follow.
System: Saccharomyces cerevisiae growth inhibition, permissive control
method: yeast lifespan-shortening chemical project counter-assay, dose-response inhibition of growth under permissive conditions (AID 850);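 further: growth read as optical density after one day of incubation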
Calls of active or inactive are those of the source. How the calls were made is not given here.
observable: IC50

[[record]]
molecule = "CCCc1cc(C(=O)NC2CCCCC2)no1"
observable = "IC50"
endpoint_value = "> 100 µM (inactive)"

[[record]]
molecule = "CCCCC(=O)NNC(=S)NC(=O)CCC"
observable = "IC50"
endpoint_value = "29.7 µM"

[[record]]
molecule = "Cc1cc([N+](=O)[O-])ccc1-c1ccc(C2Nc3ccccc3C(=O)N2O)o1 (stereo unspecified)"
observable = "IC50"
endpoint_value = "> 100 µM (inactive)"

[[record]]
molecule = "N/C(Cc1ccccc1)=N\\OC(=O)c1cccc2ccccc12"
observable = "IC50"
endpoint_value = "8.26 µM"

[[record]]
molecule = "Nc1ccc(SC(F)(F)F)cc1C(=O)c1ccccc1"
observable = "IC50"
endpoint_value = "> 100 µM (inactive)"

[[record]]
molecule = "COc1cc(C(=O)NC(=S)NNC(=O)c2cnccn2)cc(OC)c1OC"
observable = "IC50"
endpoint_value = "23.3 µM"


---

Tested on: Saccharomyces cerevisiae growth inhibition, permissive control
method: yeast lifespan-shortening chemical project counter-assay, dose-response inhibition of growth under permissive conditions (AID 850);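 further: growth read as optical density after one day of incubation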
The source made the active and inactive calls. How the calls were made is not given here.
Outcome codes: 1 (active), -1 (inactive)

[[record]]
compound = "CCCc1cc(C(=O)Cc2ccc(F)cc2)c(O)cc1O"
system_tested = "Saccharomyces cerevisiae growth inhibition, permissive control"
label_value = 1

[[record]]
compound = "CC(C)CNC(=O)CN(C1CCCCC1)S(C)(=O)=O"
system_tested = "Saccharomyces cerevisiae growth inhibition, permissive control"
label_value = -1

[[record]]
compound = "O=c1cc(C(F)(F)F)[nH]c2c(C(F)(F)F)cccc12"
system_tested = "Saccharomyces cerevisiae growth inhibition, permissive control"
label_value = 1

[[record]]
compound = "Cc1ccc(/C=C2\\C(=O)NC(=S)N(c3ccccc3F)C2=O)s1"
system_tested = "Saccharomyces cerevisiae growth inhibition, permissive control"
label_value = -1

[[record]]
compound = "Cc1ccc2nc(-c3ccc(NS(C)(=O)=O)cc3)cc(-c3ccccc3)c2c1"
system_tested = "Saccharomyces cerevisiae growth inhibition, permissive control"
label_value = -1

[[record]]
compound = "Cc1oc(-c2cccs2)nc1CS(=O)CC(=O)NC1CCCCCC1 (configuration not stated)"
system_tested = "Saccharomyces cerevisiae growth inhibition, permissive control"
label_value = -1

[[record]]
compound = "CC1(C)Cc2c(C#N)c(N)sc(=S)c2CO1"
system_tested = "Saccharomyces cerevisiae growth inhibition, permissive control"
label_value = -1

[[record]]
compound = "O=C(CC(O)(C(F)(F)F)C(F)(F)F)Nc1ccc(Cl)c(Cl)c1"
system_tested = "Saccharomyces cerevisiae growth inhibition, permissive control"
label_value = 1

[[record]]
compound = "CCC(C)NC(=O)CS(=O)Cc1nc(-c2ccccc2C)oc1C (configuration not stated)"
system_tested = "Saccharomyces cerevisiae growth inhibition, permissive control"
label_value = -1

[[record]]
compound = "CCCC(=O)NC(c1cccs1)c1cc([N+](=O)[O-])c2cccnc2c1O (configuration not stated)"
system_tested = "Saccharomyces cerevisiae growth inhibition, permissive control"
label_value = 1

[[record]]
compound = "Cc1ccc(-c2nn(C(C)(C)C)c3ncnc(N)c23)cc1"
system_tested = "Saccharomyces cerevisiae growth inhibition, permissive control"
label_value = 1

[[record]]
compound = "CCCCN(CCCC)C(=S)N/N=C/c1c(C)[nH]n(-c2ccccc2)c1=O"
system_tested = "Saccharomyces cerevisiae growth inhibition, permissive control"
label_value = -1

[[record]]
compound = "CCCCCCCCCCCCCCCC[n+]1cccc2ccccc21"
system_tested = "Saccharomyces cerevisiae growth inhibition, permissive control"
label_value = 1

[[record]]
compound = "Cc1ccc(C(=O)O/N=C/c2c(N3CCOCC3)n(C)c3ccccc23)cc1"
system_tested = "Saccharomyces cerevisiae growth inhibition, permissive control"
label_value = -1

[[record]]
compound = "Clc1ccc(COC(Cn2ccnc2)c2ccc(Cl)cc2Cl)cc1 (configuration not stated)"
system_tested = "Saccharomyces cerevisiae growth inhibition, permissive control"
label_value = 1

[[record]]
compound = "O=C1C=C(c2ccc(Cl)cc2)C(=O)N1Nc1ccccc1"
system_tested = "Saccharomyces cerevisiae growth inhibition, permissive control"
label_value = 1

[[record]]
compound = "CCc1cccc(C)c1NC(=S)NCc1ccc2[nH]c(C)cc2c1"
system_tested = "Saccharomyces cerevisiae growth inhibition, permissive control"
label_value = -1

[[record]]
compound = "CCC(C)/C(C)=N/NC(=O)c1ccc(COc2ccc(Cl)c(C)c2)cc1 (configuration not stated)"
system_tested = "Saccharomyces cerevisiae growth inhibition, permissive control"
label_value = 1

[[record]]
compound = "CC1=CC(=O)c2ccccc2C1=O"
system_tested = "Saccharomyces cerevisiae growth inhibition, permissive control"
label_value = 1

[[record]]
compound = "O=C1NCCCC1C(=O)N/N=C/c1cccc(O)c1 (configuration not stated)"
system_tested = "Saccharomyces cerevisiae growth inhibition, permissive control"
label_value = -1

[[record]]
compound = "Cc1cc(N2CCN(c3cccc(C)c3C)CC2)nc(-c2ccccc2)n1"
system_tested = "Saccharomyces cerevisiae growth inhibition, permissive control"
label_value = 1

[[record]]
compound = "COCC(C)OC(=O)/C(C#N)=C\\c1coc2ccc(C)cc2c1=O (configuration not stated)"
system_tested = "Saccharomyces cerevisiae growth inhibition, permissive control"
label_value = -1

[[record]]
compound = "CCN(CC)S(=O)(=O)c1ccc(NC(=O)CSc2cccc[n+]2[O-])cc1"
system_tested = "Saccharomyces cerevisiae growth inhibition, permissive control"
label_value = 1

[[record]]
compound = "Cc1ccc(NC(=S)Nc2ccc(Cl)c(Cl)c2)c(OC(F)F)c1"
system_tested = "Saccharomyces cerevisiae growth inhibition, permissive control"
label_value = 1

[[record]]
compound = "COc1ccccc1-n1c(=O)oc2ccc(Cl)cc2c1=O"
system_tested = "Saccharomyces cerevisiae growth inhibition, permissive control"
label_value = -1

[[record]]
compound = "O=C(CC(=O)c1ccccc1O)c1ccc(F)cc1"
system_tested = "Saccharomyces cerevisiae growth inhibition, permissive control"
label_value = 1

[[record]]
compound = "Cc1nc(Nc2ccc(Cl)c(Cl)c2)sc1C(=O)Nc1ccccc1"
system_tested = "Saccharomyces cerevisiae growth inhibition, permissive control"
label_value = -1

[[record]]
compound = "Cc1ccc(-c2nc(N)sc2-c2ccccc2)cc1C"
system_tested = "Saccharomyces cerevisiae growth inhibition, permissive control"
label_value = -1

[[record]]
compound = "CC(=O)O/N=C/c1c(N2CCOCC2)n(C)c2ccccc12"
system_tested = "Saccharomyces cerevisiae growth inhibition, permissive control"
label_value = 1

[[record]]
compound = "Fc1ccc2nc3[nH]c4ccccc4c3nc2c1"
system_tested = "Saccharomyces cerevisiae growth inhibition, permissive control"
label_value = -1

[[record]]
compound = "OC(CNCC1CCCO1)Cn1c2ccc(Br)cc2c2cc(Br)ccc21 (configuration not stated)"
system_tested = "Saccharomyces cerevisiae growth inhibition, permissive control"
label_value = 1

[[record]]
compound = "Cc1ccc(CNC(=O)c2ccc(Cn3nc(C)c(Cl)c3C)o2)cc1"
system_tested = "Saccharomyces cerevisiae growth inhibition, permissive control"
label_value = 1

[[record]]
compound = "CC(C)(C)c1ccc(NC(=O)COC(=O)c2ccc([N+](=O)[O-])s2)cc1"
system_tested = "Saccharomyces cerevisiae growth inhibition, permissive control"
label_value = 1

[[record]]
compound = "O=C(N/N=C\\c1cccc([N+](=O)[O-])c1O)C1COc2ccccc2O1 (configuration not stated)"
system_tested = "Saccharomyces cerevisiae growth inhibition, permissive control"
label_value = 1

[[record]]
compound = "O=C(Nc1ccc(Cl)cc1)ON=C1CCCC1"
system_tested = "Saccharomyces cerevisiae growth inhibition, permissive control"
label_value = 1

[[record]]
compound = "COc1ccc(CN2CN(C(C)C)CSC2=S)cc1"
system_tested = "Saccharomyces cerevisiae growth inhibition, permissive control"
label_value = -1

[[record]]
compound = "Cc1ccc(NC(=O)ON=C2CCCC2)cc1"
system_tested = "Saccharomyces cerevisiae growth inhibition, permissive control"
label_value = 1

[[record]]
compound = "CCN1/C(=C/c2ccc3ccc(C)cc3[n+]2CC)Sc2ccccc21"
system_tested = "Saccharomyces cerevisiae growth inhibition, permissive control"
label_value = 1

[[record]]
compound = "OC(COc1ccc2ccccc2c1Br)Cn1cnc(-c2ccccc2)c1 (configuration not stated)"
system_tested = "Saccharomyces cerevisiae growth inhibition, permissive control"
label_value = -1

[[record]]
compound = "Cc1ccc2nc(/C(C#N)=C\\c3ccc([N+](=O)[O-])o3)[nH]c2c1"
system_tested = "Saccharomyces cerevisiae growth inhibition, permissive control"
label_value = 1

[[record]]
compound = "Cc1ccc(-c2cc(-c3ccccc3C)[nH]n2)c(O)c1"
system_tested = "Saccharomyces cerevisiae growth inhibition, permissive control"
label_value = 1

[[record]]
compound = "CC(C)(C)c1nnc(N/N=C/c2cc(Br)ccc2O)n(N)c1=O"
system_tested = "Saccharomyces cerevisiae growth inhibition, permissive control"
label_value = 1

[[record]]
compound = "COc1ccccc1-c1nnc(NC(=O)C(C)SC2=NCCS2)s1 (configuration not stated)"
system_tested = "Saccharomyces cerevisiae growth inhibition, permissive control"
label_value = -1

[[record]]
compound = "Clc1ccc(N/N=C/c2ccncc2)cc1Cl"
system_tested = "Saccharomyces cerevisiae growth inhibition, permissive control"
label_value = -1

[[record]]
compound = "COc1ccc(/C=C2/C(=O)ON=C2c2ccccc2)cc1OC"
system_tested = "Saccharomyces cerevisiae growth inhibition, permissive control"
label_value = -1

[[record]]
compound = "Clc1ccc(CSC(Cn2ccnc2)c2ccc(Cl)cc2Cl)cc1 (configuration not stated)"
system_tested = "Saccharomyces cerevisiae growth inhibition, permissive control"
label_value = 1

[[record]]
compound = "O=C(N/N=C/c1cc2c3c(c1O)CCCN3CCC2)c1ccccc1O"
system_tested = "Saccharomyces cerevisiae growth inhibition, permissive control"
label_value = 1

